I'd be grateful if you could share measured Percentage Phytotoxicity Winter Wheat “Hereward” for these entries.
# System: Winter Wheat “Hereward”
# Procedure Summary: Test 1B glasshouse assay, post-emergence herbicidal activity against cereal crops
# Type: in vivo
# Condition Context: herbicide 45 g/ha, cloquintocet-mexyl 50 g/ha
Write the number in % without appending the unit.

Write down the reported Percentage Phytotoxicity Winter Wheat “Hereward” (system: Winter Wheat “Hereward”) of Cc1cc(C)c(C2C(=O)C[C@H](CCNC(=O)c3ccc(Br)cn3)C2=O)c(C)c1 (stereo partly shown) [Compound A120B]
10

Under Winter Wheat “Hereward”: report Percentage Phytotoxicity Winter Wheat “Hereward” of Cc1cc(C)c(C2C(=O)C[C@@H](CCNC(=O)c3ccc(Br)cn3)C2=O)c(C)c1 (stereo partly shown) [Compound A120A] .
60

GET Percentage Phytotoxicity Winter Wheat “Hereward” | system: Winter Wheat “Hereward” | item: Cc1cc(C)c(C2C(=O)CC(CCNC(=O)c3ccc(Br)cn3)C2=O)c(C)c1 (racemic)
50

Fetch value of Percentage Phytotoxicity Winter Wheat “Hereward” on Winter Wheat “Hereward” for Cc1cc(C)c(C2C(=O)C[C@@H](CCNC(=O)c3cccc(F)n3)C2=O)c(C)c1 (stereo partly shown) .
40

Provide measured Percentage Phytotoxicity Winter Wheat “Hereward” on Winter Wheat “Hereward” for Cc1cc(C)c(C2C(=O)C[C@H](CCNC(=O)c3cccc(F)n3)C2=O)c(C)c1 (stereo partly shown) please.
0

Return reported Percentage Phytotoxicity Winter Wheat “Hereward” for target or system Winter Wheat “Hereward”, item Cc1cc(C)c(C2C(=O)C[C@H](CCNC(=O)c3cc(Cl)ccn3)C2=O)c(C)c1 (stereo partly shown) .
0

Please report the measured Percentage Phytotoxicity Winter Wheat “Hereward” for Cc1cc(C)c(C2C(=O)C[C@@H](CCNC(=O)c3cc(Cl)ccn3)C2=O)c(C)c1 (stereo partly shown) tested on Winter Wheat “Hereward”.
0

###

# System: Poa annua (POAAN)
# Procedure Summary: Test 1B glasshouse assay, post-emergence herbicidal activity against grassy weeds
# Assay type: in vivo
# Condition Context: 60 g/ha herbicide, 0 g/ha cloquintocet-mexyl, 14 DAA
Please respond with reported Post-emergence herbicidal activity, percentage phytotoxicity, POAAN for every item in the list.
State just the number; it will be interpreted in %.

# return recorded Post-emergence herbicidal activity, percentage phytotoxicity, POAAN for input Cc1cc(C)c(C2C(=O)C[C@@H](CCNC(=O)c3cc(Cl)ccn3)C2=O)c(C)c1 (some centres unmarked) [Compound A127]
0

Indicate its recorded Post-emergence herbicidal activity, percentage phytotoxicity, POAAN; the compound in question is Cc1cc(C)c(C2C(=O)C[C@H](CCNC(=O)c3cc(Cl)ccn3)C2=O)c(C)c1 (some centres unmarked) [Compound A128]
5

Specify reported Post-emergence herbicidal activity, percentage phytotoxicity, POAAN for the compound shown: Cc1cc(C)c(C2C(=O)C[C@@H](CCNC(=O)c3cccc(F)n3)C2=O)c(C)c1 (some centres unmarked) [Compound A112]
40

Please give measured Post-emergence herbicidal activity, percentage phytotoxicity, POAAN of the following entry: Cc1cc(C)c(C2C(=O)C[C@@H](CCNC(=O)c3ccc(Br)cn3)C2=O)c(C)c1 (some centres unmarked) [Compound A120A]
30

Quick one: give measured Post-emergence herbicidal activity, percentage phytotoxicity, POAAN for Cc1cc(C)c(C2C(=O)C[C@H](CCNC(=O)c3ccc(Br)cn3)C2=O)c(C)c1 (some centres unmarked) [Compound A120B]
4

Cited source: patent US9808003B2
